System: purified anti-resin component antibody
Assay: Cross reactivity of purified anti-resin component antibody
Type: binding, rabbit
Conditions: assuming BPA=100%
quantity-measured: Cross reactivity (%)

> print(dat)
                                    compound  quantity.measured  result.qualifier  observed.measurement
 1  CCC(C)(c1ccc(O)cc1)c1ccc(O)cc1 [Bisphenol B (BPB), Bisphenol B]   Cross reactivity                 =                  22.5
 2  O=C(c1ccc(O)cc1)c1ccc(O)cc1 [p,p′-Dihydroxybenzophenone]   Cross reactivity                 <                   0.4
 3  CC(c1ccc(O)cc1)c1ccc(O)cc1 [Bisphenol E (BPE), Bisphenol E]   Cross reactivity                 =                   6.6
 4  O=S(=O)(c1ccc(OCCO)cc1)c1ccc(OCCO)cc1 [Bis[4-(2-hydroxyethoxy)phenyl]sulfone]   Cross reactivity                 <                   0.4
 5  CC(CCC(=O)O)(c1ccc(O)cc1)c1ccc(O)cc1 [4,4′-Bis(p-hydroxyphenyl)pentanoic acid]   Cross reactivity                 <                   0.4
 6  CC(CO)(c1ccc(O)cc1)c1ccc(O)cc1 [2,2′-Bis(4-hydroxyphenyl)-1-propanol]   Cross reactivity                 =                   9.3
 7  CC(C)(c1ccc(O)cc1)c1ccc(O)cc1 [Bisphenol A (BPA), Bisphenol A]   Cross reactivity                 =                   100
 8  CC(C)(c1ccc(OCC2CO2)cc1)c1ccc(OCC2CO2)cc1 (stereo not shown) [BPA diglycidyl ether]   Cross reactivity                 <                   0.4
 9  O=S(=O)(c1ccc(O)cc1)c1ccc(O)cc1 [Bisphenol S (BPS), Bisphenol S]   Cross reactivity                 <                   0.4
10  Oc1ccc(Oc2ccc(O)cc2)cc1 [4,4′-Dihydroxydiphenyl ether]   Cross reactivity                 <                   0.4
